Source: patent US20120225909A1

Biological target: human β1-adrenergic receptor (Homo sapiens, UniProt P08588)
Construct: expressed in transfected cells; host or cells: CHO (Chinese hamster ovary) cells, pcDNA3
Sequence (P08588 whole entry): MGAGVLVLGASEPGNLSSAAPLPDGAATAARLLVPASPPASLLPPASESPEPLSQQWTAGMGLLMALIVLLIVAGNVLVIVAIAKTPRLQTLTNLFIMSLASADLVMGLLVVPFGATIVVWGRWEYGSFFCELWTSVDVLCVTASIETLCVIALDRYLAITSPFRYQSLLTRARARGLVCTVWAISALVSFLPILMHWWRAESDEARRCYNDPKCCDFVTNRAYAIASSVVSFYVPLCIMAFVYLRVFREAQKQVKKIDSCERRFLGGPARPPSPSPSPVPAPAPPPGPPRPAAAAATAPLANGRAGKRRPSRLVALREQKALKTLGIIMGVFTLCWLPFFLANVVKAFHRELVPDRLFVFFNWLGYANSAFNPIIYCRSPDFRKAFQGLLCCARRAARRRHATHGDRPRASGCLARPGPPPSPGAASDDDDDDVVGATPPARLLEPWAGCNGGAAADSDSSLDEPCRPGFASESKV
Assay: Test Case 2-C: human β1-adrenergic receptor agonist activity (Cerep cellular functional GPCR, beta 1)
Format: cell-based
Conditions: concentration 10 μM, isoproterenol = 100%
Quantity Name: β1 receptor % of Control Agonist Response

- Molecule: "O=S(=O)(Nc1cccc([C@@H](O)CNCCOc2ccc3c(OC(F)F)n[nH]c3c2)c1)c1cn[nH]c1 [ex113]"
  Data Value: "3.7%"
- Molecule: "Cc1n[nH]c2cc(OCCNC[C@H](O)c3cccc(NS(=O)(=O)c4c(F)cccc4F)c3)ccc12 [ex71]"
  Data Value: "32%"
- Molecule: "Cc1n[nH]c2cc(OCCNC[C@H](O)c3cccc(NS(=O)(=O)c4cc(F)c(F)cc4F)c3)ccc12 [ex85]"
  Data Value: "30%"
- Molecule: "Cc1n[nH]c2cc(OCCNC[C@H](O)c3cccc(NS(=O)(=O)c4cc(F)ccc4F)c3)ccc12 [ex72]"
  Data Value: "19%"
- Molecule: "O=S(=O)(Nc1cc([C@@H](O)CNCCOc2ccc3c(C(F)(F)F)n[nH]c3c2)ccc1Cl)C1CC1 [ex199]"
  Data Value: "8.0%"
- Molecule: "O=S(=O)(Nc1cccc([C@@H](O)CNCCOc2ccc3c(Cl)n[nH]c3c2)c1)c1cn[nH]c1 [ex167]"
  Data Value: "6.4%"
- Molecule: "COc1n[nH]c2cc(OCCNC[C@H](O)c3cccc(NS(=O)(=O)c4cccnc4F)c3)ccc12 [ex24]"
  Data Value: "6.1%"
- Molecule: "CCc1n[nH]c2cc(OCCNC[C@H](O)c3cccc(NS(=O)(=O)c4cnn(C)c4)c3)ccc12 [ex135]"
  Data Value: "3.7%"
- Molecule: "O=S(=O)(Nc1cccc([C@@H](O)CNCCOc2ccc3c(C(F)(F)F)n[nH]c3c2)c1)c1cccnc1 [ex186]"
  Data Value: "7.2%"
- Molecule: "Cc1n[nH]c2cc(OCCNC[C@H](O)c3cccc(NS(=O)(=O)c4ccc(Cl)c(N)c4)c3)ccc12 [ex7]"
  Data Value: "15%"
- Molecule: "CCc1n[nH]c2cc(OCCNC[C@H](O)c3cccc(NS(=O)(=O)c4cc(N)ccc4F)c3)ccc12 [ex148]"
  Data Value: "15%"
- Molecule: "Cc1n[nH]c2cc(OCCNC[C@H](O)c3cccc(NS(=O)(=O)c4cccnc4F)c3)ccc12 [ex86]"
  Data Value: "8.8%"
- Molecule: "O=S(=O)(Nc1cccc([C@@H](O)CNCCOc2ccc3c(Cl)n[nH]c3c2)c1)c1ccsc1 [ex157]"
  Data Value: "7.0%"
- Molecule: "O=S(=O)(Nc1cccc([C@@H](O)CNCCOc2ccc3c(Cl)n[nH]c3c2)c1)c1ccccc1F [ex158]"
  Data Value: "17%"
- Molecule: "CCc1n[nH]c2cc(OCCNC[C@H](O)c3cccc(NS(=O)(=O)c4ccccc4F)c3)ccc12 [ex128]"
  Data Value: "10%"
- Molecule: "Nc1ccc(F)c(S(=O)(=O)Nc2cccc([C@@H](O)CNCCOc3ccc4c(Cl)n[nH]c4c3)c2)c1 [ex242]"
  Data Value: "9.4%"
